System: BT-549
Assay: NCI tumour cell line growth inhibition, 48 h
Calls of active or inactive are those of the source. Rule as the data show it: active = GI50 up to about 1.1 µM and inactive = higher. Square brackets hold non-standard residues; d marks the D form. Peptide text beside a SMILES is read from it. * marks the point of attachment. ξ: configuration not given here. NMeN = CN[C@@H](CC(N)=O)C(=O)O; NMeV = CN[C@H](C(=O)O)C(C)C; ξNMeV = CNC(C(=O)O)C(C)C; Boc = CC(C)(C)OC(=O)*; ξNMeA = CNC(C)C(=O)O
Overview of recorded GI50 for various compounds

Known GI50 results, listed for orientation:
# compound, value observed
rows = [
    ("CCOC(=O)c1c(-c2ccc(Br)cc2)ccn1C", "> 10 µM (inactive)"),
    ("O=C1Oc2ccccc2C(=O)/C1=C1/C=C(c2ccccc2)SS1", "> 100 µM (inactive)"),
    ("COc1cc2c[n+](C)c3c4cc(OC)c(OC)cc4ccc3c2cc1OC", "32.1 µM (inactive)"),
    ("CC1(COS(=O)(=O)OCC2(C)COS(=O)(=O)OC2)COS(=O)(=O)OC1", "> 48.8 µM (inactive)"),
    ("CSC(=S)OC1C(CO[Si](C)(C)C(C)(C)C)OC2OC(C)(C)OC21 (centres undefined)", "30.8 µM (inactive)"),
]

input: I'm curious: which GI50 was measured for COC(=O)C(C)N(C)C(=O)[C@H](CC(N)=O)N(C)C(=O)[C@@H]1CCCN1C(=O)[C@H](C(C)C)N(C)C(=O)C(C(C)C)N(C)C(=O)[C@@H](NC(=O)OC(C)(C)C)C(C)C (some centres undefined) (Boc-V[ξNMeV][NMeV]P[NMeN][ξNMeA]-OMe) tested on BT-549?
output: > 50 µM (inactive)

input: Next record, please: O=C(c1ccco1)C1CC(c2ccc3ccccc3c2O)=NN1 (centres undefined)
output: > 100 µM (inactive)

input: Next record, please: O=[N+]([O-])c1cccc(-c2ncnc(-c3cccc([N+](=O)[O-])c3)n2)c1
output: 32.2 µM (inactive)

input: Next record, please: C=CCCCC1CCCNC1=S (centres undefined)
output: > 100 µM (inactive)

* * *

Overview of recorded GI50 for various compounds
Test system: SK-MEL-5
Assay: NCI tumour cell line growth inhibition, 48 h
Active and inactive are the calls of the source. Rule as the data show it: active = GI50 up to about 1.1 µM and inactive = higher.

# compound, GI50
data = [
    ("CCSc1c2cc(OC)ccc2nc2ccc(OC)cc12", "6.65 µM (inactive)"),
    ("O=c1oc2c/c(=C\\c3ccc([N+](=O)[O-])cc3)c(=O)c3cccc1c3-2", "> 100 µM (inactive)"),
    ("Nc1ccc2nc3n(c2c1)C(c1c(F)cccc1F)SC3 (stereo not given)", "41 µM (inactive)"),
    ("CN(C)C(=O)OC1=CC2CCC(C1)N2C (stereo not given)", "> 100 µM (inactive)"),
]

input: Reported GI50, compound O=c1c2cc(-c3ccccc3)sc2nc2n1N=C(c1ccccc1)CS2 : ____
output: 20.6 µM (inactive)

input: Next record, please: O=C1NC(=O)C(C(CC(=O)c2ccc(Cl)cc2)c2ccc(Cl)cc2)C(=O)N1 (stereo not given)
output: > 100 µM (inactive)

input: Next record, please: CCOC(O)(NC(=O)C(C(F)(F)F)C(F)(F)F)C(F)(F)F (stereo not given)
output: > 100 µM (inactive)

input: Next record, please: CNC(C)Cc1ccc(O)cc1 (stereo not given)
output: > 100 µM (inactive)

input: Next record, please: COc1ccc2c([nH]c3c(O)c(-c4c(C)cc5c([nH]c6c(CC=C(C)C)c(OC)ccc65)c4O)c(C)cc32)c1CC=C(C)C [BISMURRAYAFOLINE B]
output: > 100 µM (inactive)

input: Next record, please: CCOC(=O)NN1C(=O)C(=P(c2ccccc2)(c2ccccc2)c2ccccc2)C(C(=O)OC)=C1C
output: > 100 µM (inactive)
